Reported pKd by item:
Molecular target: T1, recombinant human BCMA, commercial (US Biological, B0410) (human, UniProt Q02223 5-54, limits assumed)
T1 construct: also called commercial human BCMA; Human commercial BCMA
T1 chain (looked up): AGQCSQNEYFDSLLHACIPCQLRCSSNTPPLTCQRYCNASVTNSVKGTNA
Assay: ProteOn SPR run 2, antibody captured on Protein A, 25C
pKd: −log10 of the molar value.
Measured Endpoint: pKd

Binder	Reported
CA8 humanised J6M2 (antibody, human IgG1, kappa, V domains shown, Humanised CA8, heavy chain J6 with light chain M2, human IgG1 kappa; also called CA8 J6M2) VH: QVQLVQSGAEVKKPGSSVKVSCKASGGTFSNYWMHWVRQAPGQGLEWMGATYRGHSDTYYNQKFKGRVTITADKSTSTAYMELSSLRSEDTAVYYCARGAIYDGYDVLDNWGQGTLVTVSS VL: DIQLTQSPSSLSASVGDRVTITCSASQDISNYLNWYQQKPGKAPELVIYYTSNLHSGVPSRFSGSGSGTDYTLTISSLQPEDFATYYCQQYRKLPWTFGQGTKLEIKR	10.15
CA8 humanised J6M1 (antibody, human IgG1, kappa, V domains shown, Humanised CA8, heavy chain J6 with light chain M1, human IgG1 kappa; also called CA8 J6M1) VH: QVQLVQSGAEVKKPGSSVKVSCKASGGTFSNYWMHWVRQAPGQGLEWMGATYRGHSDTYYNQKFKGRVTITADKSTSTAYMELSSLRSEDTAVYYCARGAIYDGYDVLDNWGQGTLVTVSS VL: DIQMTQSPSSLSASVGDRVTITCSASQDISNYLNWYQQKPGKAPKLLIYYTSNLHSGVPSRFSGSGSGTDYTLTISSLQPEDFATYYCQQYRKLPWTFGQGTKLEIKR	10.20
